B1: EPB41L3 (parent)
chain: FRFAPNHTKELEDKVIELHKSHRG

- Variants of: B1
- experimental.protocol: protein stability index of a GFP-peptide fusion (GPS, HEK-293T) (PSI 1-6); higher = more stable;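 note: lentivirally expressed fusions sorted by FACS into six bins by GFP to DsRed ratio, PSI derived from sequencing read proportions per bin multiplied by bin number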
- assay.conditions: c terminus: a fixed tail appended
In this section, each of the variants is paired with its reported protein stability index.
The answer should be a number; do not append a unit.

Some entries whose results are on file:
>>> quantitative_result("H22E")
2.52
>>> quantitative_result("H7Q")
2.28
>>> quantitative_result("F3W")
2.97
>>> quantitative_result("D13N")
2.79

Task: What measured protein stability index goes with H22Y ?
Result: 2.96

Task: What measured protein stability index goes with H19D ?
Result: 2.07

Task: What measured protein stability index goes with K14S ?
Result: 1.97

Task: What measured protein stability index goes with N6F ?
Result: 1.74

Task: What measured protein stability index goes with R2Q ?
Result: 3.89

Task: What measured protein stability index goes with G24P ?
Result: 2.19

Task: What measured protein stability index goes with A4F ?
Result: 3.19

Task: What measured protein stability index goes with V15S ?
Result: 2.44

Task: What measured protein stability index goes with T8K ?
Result: 2.39

Ref: the supplement of paper PMC10567573
